# Species: Homo sapiens
# testProtocol: Selectivity ratio of IC50 for SIRT1 (unknown origin) to IC50 for SIRT6 (unknown origin)
Kindly state Ratio IC50 for each of the entries shown.
Numbers only.

Example molecules with recorded Ratio IC50:
N=C(Nc1ccccc1)SC1CC(=O)N(c2ccc(C(=O)O)cc2)C1=O (racemic)	19.1
O=C(NCc1nc(-c2cccnc2)n[nH]1)c1cnccn1	1.1
O=c1[nH]c(=O)c2cc(S(=O)(=O)Nc3ccc(Oc4cccnc4)cc3)ccc2[nH]1	2.96

Input: Any idea what its Ratio IC50 is? The molecule is O=C(Nc1ccc(O)c(C(=O)O)c1)c1cccc(NC(=O)c2ccco2)c1
Output: 17.7

====

Please go through the items and note down their Ratio IC50.
# Organism: Homo sapiens
# testProtocol: Selectivity ratio of IC50 for SIRT2 (unknown origin) to IC50 for SIRT6 (unknown origin)
Give bare numbers.

N=C(Nc1ccccc1)SC1CC(=O)N(c2ccc(C(=O)O)cc2)C1=O (racemic)	9.63
O=c1[nH]c(=O)c2cc(S(=O)(=O)Nc3ccc(Oc4cccnc4)cc3)ccc2[nH]1	1.07
O=C(Nc1ccc(O)c(C(=O)O)c1)c1cccc(NC(=O)c2ccco2)c1	8.44

We now examine a further compound.
Input: What does the record list as Ratio IC50 for O=C(NCc1nc(-c2cccnc2)n[nH]1)c1cnccn1 ?
Output: 1.71

====

# experimentalTarget: NAD-dependent protein deacetylase sirtuin-2 (Homo sapiens, UniProt Q8IXJ6)
# Sequence (Q8IXJ6 whole entry): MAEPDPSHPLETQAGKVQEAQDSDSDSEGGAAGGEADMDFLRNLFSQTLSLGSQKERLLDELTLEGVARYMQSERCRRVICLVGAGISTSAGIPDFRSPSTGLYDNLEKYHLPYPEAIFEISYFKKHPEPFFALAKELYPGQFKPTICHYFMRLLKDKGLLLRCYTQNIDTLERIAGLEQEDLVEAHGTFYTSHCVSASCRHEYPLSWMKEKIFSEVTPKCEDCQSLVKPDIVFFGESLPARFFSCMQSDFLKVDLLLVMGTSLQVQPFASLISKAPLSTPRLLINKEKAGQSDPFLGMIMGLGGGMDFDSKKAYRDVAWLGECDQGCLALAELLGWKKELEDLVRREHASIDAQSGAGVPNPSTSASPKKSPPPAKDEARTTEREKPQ
endpoint: IC50
Include the unit right after the number.

Input: Bench note: what IC50 did O=C(Nc1ccc(O)c(C(=O)O)c1)c1cccc(NC(=O)c2ccco2)c1 show?
Output: 751 µM

====

# experimentalTarget: NAD-dependent protein deacylase sirtuin-6 (Homo sapiens, UniProt Q8N6T7)
# Sequence (Q8N6T7 whole entry): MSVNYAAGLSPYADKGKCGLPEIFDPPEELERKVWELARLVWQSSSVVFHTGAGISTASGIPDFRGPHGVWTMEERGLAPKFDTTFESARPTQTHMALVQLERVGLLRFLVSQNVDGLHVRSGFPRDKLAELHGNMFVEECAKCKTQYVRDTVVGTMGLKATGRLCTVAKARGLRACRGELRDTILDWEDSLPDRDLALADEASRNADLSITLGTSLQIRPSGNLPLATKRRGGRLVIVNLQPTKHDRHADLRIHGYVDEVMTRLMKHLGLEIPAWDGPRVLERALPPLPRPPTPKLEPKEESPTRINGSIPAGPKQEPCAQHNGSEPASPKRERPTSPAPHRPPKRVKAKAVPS
# testProtocol: Inhibition of SIRT6 (unknown origin) at 200 uM by fluorescence-based assay
Calls of active or inactive are those of the source. No cut-off for these calls is given here.
endpoint: inhibition

Recorded results for 4 molecules are shown here.
O=C(NCc1nc(-c2cccnc2)n[nH]1)c1cnccn1	12%
N=C(Nc1ccccc1)SC1CC(=O)N(c2ccc(C(=O)O)cc2)C1=O (racemic)	66%
O=C(Nc1ccc(NS(=O)(=O)c2ccc(Oc3ccc([N+](=O)[O-])cc3)cc2)cc1)c1ccccc1	inactive
COc1ccc(OCC(O)Cn2c(NCCc3ccccc3)nc3c2c(=O)[nH]c(=O)n3C)cc1 (stereo not given)	inactive

We next turn to a different molecule, shown below.
Input: Item CCOc1ccc(NC2SC(=O)NC2=O)cc1 (stereo not given) has what recorded inhibition?
Output: inactive
